target: Cyclin-dependent kinase 2 (Homo sapiens) (UniProt P24941); details: at 0.1 µM;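 note: mean inhibition of CDK2 bound to cyclin A, from the GSK PKIS kinase inhibitor set screen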
Assay Readout: inhibition (%)
Answer format: numeric, % implied, no suffix.

{"Compound Structure": "COc1cc2ncn(-c3cc(OCc4ccccc4Cl)c(C(N)=O)s3)c2cc1OC", "inhibition (%)": 1.7}
{"Compound Structure": "Cc1nnc(-c2ccc(C)c(-c3ccc(C(=O)Nc4cccc(C#N)c4)cc3)c2)o1", "inhibition (%)": 1.13}

Read the next record carefully.
Record NC(=O)c1cccc(Nc2nccc(Nc3cccc4[nH]ncc34)n2)c1 ; system Cyclin-dependent kinase 2 (Homo sapiens) (UniProt P24941); inhibition = 10.3

###

system: Tyrosine-protein kinase ABL1 (Homo sapiens), P00519 [M351T]; details: at 0.1 µM
Assay Readout: inhibition (%)
Answer format: numeric, % implied, no suffix.

Check out these entries, answers already filled in.
{"Compound": "Cc1cccc(-c2n[nH]cc2-c2ccc3ncccc3n2)n1", "Unit Text": "%", "inhibition": 2.99}
{"Compound": "NS(=O)(=O)c1cccc(-c2ccc3c(NC(=O)C4CC4)n[nH]c3c2)c1", "Unit Text": "%", "inhibition": 7.02}
{"Compound": "CCn1c(-c2nonc2N)nc2c(N3CCCC3)nccc21", "Unit Text": "%", "inhibition": 1.28}
{"Compound": "CCc1cccc(NC(=O)Nc2ccc(Oc3ccc4nc(NC(=O)OC)[nH]c4c3)cc2)c1", "Unit Text": "%", "inhibition": 48.6}
{"Compound": "CC1=C(C(=O)Nc2ccc3[nH]ncc3c2)C(c2ccc(F)cc2)NC(=O)N1 (stereo not given)", "Unit Text": "%", "inhibition": 1.52}

For O=C1NC(=O)C(c2cccc(Cl)c2)=C1Nc1ccc(O)c(Cl)c1 the compound record lists inhibition as -0.1

For COc1cc2ncn(-c3cc(O[C@@H](C)c4ccccc4Cl)c(C(N)=O)s3)c2cc1OC the compound record lists inhibition as 3.76

For Cc1ccc(NC(=O)c2ccnc(N3CCCC3)c2)cc1-c1ccc(C(=O)NCC2CC2)cc1 the compound record lists inhibition as 0.54

For NS(=O)(=O)c1ccc(N/N=C2\C(=O)Nc3ccc(C(=O)NCCc4c[nH]cn4)cc32)cc1 the compound record lists inhibition as 4.18

For CC(=O)Nc1cccc(C#Cc2cncnc2Nc2ccc(OCc3cccc(F)c3)c(Cl)c2)n1 the compound record lists inhibition as 1.08

###

test system: Epidermal growth factor receptor (Homo sapiens), P00533 [L858R,T790M]; details: at 1 µM
Sequence (P00533 whole entry T790M/L858R, looked up): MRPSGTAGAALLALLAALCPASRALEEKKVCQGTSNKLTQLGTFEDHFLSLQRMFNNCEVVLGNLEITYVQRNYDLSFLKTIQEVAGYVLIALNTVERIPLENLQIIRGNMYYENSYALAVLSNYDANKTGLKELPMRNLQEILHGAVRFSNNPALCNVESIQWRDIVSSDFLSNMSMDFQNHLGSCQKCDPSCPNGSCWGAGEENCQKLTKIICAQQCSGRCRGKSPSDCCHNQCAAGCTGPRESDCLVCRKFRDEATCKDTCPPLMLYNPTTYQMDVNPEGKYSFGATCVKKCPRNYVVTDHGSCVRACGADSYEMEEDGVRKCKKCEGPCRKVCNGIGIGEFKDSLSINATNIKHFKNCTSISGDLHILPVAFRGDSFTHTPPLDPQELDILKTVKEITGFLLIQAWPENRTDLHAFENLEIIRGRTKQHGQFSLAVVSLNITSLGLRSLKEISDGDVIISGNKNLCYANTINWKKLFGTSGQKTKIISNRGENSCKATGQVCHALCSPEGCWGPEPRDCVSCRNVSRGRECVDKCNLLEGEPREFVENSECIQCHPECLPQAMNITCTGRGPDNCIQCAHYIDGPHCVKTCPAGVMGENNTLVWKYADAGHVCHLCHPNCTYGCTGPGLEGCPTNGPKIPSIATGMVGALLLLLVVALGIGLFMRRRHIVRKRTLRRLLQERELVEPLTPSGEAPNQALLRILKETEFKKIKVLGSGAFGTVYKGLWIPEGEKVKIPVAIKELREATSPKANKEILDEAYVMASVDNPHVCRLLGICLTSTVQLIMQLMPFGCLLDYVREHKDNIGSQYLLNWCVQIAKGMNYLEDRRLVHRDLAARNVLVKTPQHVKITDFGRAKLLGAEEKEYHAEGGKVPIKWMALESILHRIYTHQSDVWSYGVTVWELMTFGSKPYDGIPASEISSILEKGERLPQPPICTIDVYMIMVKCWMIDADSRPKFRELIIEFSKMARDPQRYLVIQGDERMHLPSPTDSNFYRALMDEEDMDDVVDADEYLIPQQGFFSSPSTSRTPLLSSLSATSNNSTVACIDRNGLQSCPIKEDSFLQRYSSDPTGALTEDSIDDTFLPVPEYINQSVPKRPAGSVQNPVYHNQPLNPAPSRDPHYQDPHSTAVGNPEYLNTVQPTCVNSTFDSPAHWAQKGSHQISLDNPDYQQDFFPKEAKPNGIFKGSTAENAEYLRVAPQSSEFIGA
Reported inhibition values for the following compounds.
Answer format: numeric, % implied, no suffix.

Check out these entries, answers already filled in.
{"Compound": "Cc1nn(C)c2cc(N(C)c3ccnc(Nc4cccc(S(N)(=O)=O)c4)n3)ccc12", "Reading": 12.7}
{"Compound": "COc1ccc2cc(-c3c(-c4ccncc4)nc(-c4ccc([S+](C)[O-])cc4)n3C)ccc2c1 (stereo not given)", "Reading": 0.88}
{"Compound": "Nc1nc(-c2ccccn2)c(-c2ccc3ncccc3n2)s1", "Reading": 1.13}
{"Compound": "CS(=O)(=O)CCN(CC#N)Cc1ccc(-c2ccc3ncnc(Nc4ccc(OCc5cccc(F)c5)c(Cl)c4)c3c2)o1", "Reading": 0.73}
{"Compound": "O=C1NC(=O)C(c2ccc(Cl)cc2)=C1Nc1ccc(Cl)c(C(=O)O)c1", "Reading": -1.38}
{"Compound": "NCc1ccc(-c2nc(-c3ccc(Cl)c(O)c3)c(-c3ccncc3)[nH]2)cc1", "Reading": 5.04}
{"Compound": "c1cnn2ncc(-c3ccnc(Nc4ccc5c(c4)OCCO5)n3)c2c1", "Reading": 7.05}
{"Compound": "COc1ccccc1Nc1ncc(-c2ccccc2)o1", "Reading": 1.28}
{"Compound": "COc1cc2ncn(-c3cc(O[C@@H](C)c4ccccc4Cl)c(C(N)=O)s3)c2cc1OC", "Reading": 5.2}
{"Compound": "Fc1cccc(COc2ccc(Nc3ncnc4cc(-c5ccc[nH]5)sc34)cc2Cl)c1", "Reading": 0.3}

For NS(=O)(=O)c1ccc(N/N=C2\C(=O)Nc3ccc(C(=O)NCCc4c[nH]cn4)cc32)cc1 the compound record lists inhibition as 5.71

For Cc1cc(O)cc(C)c1/C=C/c1cncc(-c2nn[nH]n2)c1 the compound record lists inhibition as 2.05

For CS(=O)(=O)CCNCc1ccc(-c2ccc3ncnc(Nc4ccc(OCc5cccc(F)c5)c(C(F)(F)F)c4)c3c2)o1 the compound record lists inhibition as -1.62

For CCn1c(-c2nonc2N)nc2c(C#CC(C)(C)O)nc(CN3CCCC3)cc21 the compound record lists inhibition as 0.28

For NC(=O)c1cccc(Nc2nccc(Nc3cccc4[nH]ncc34)n2)c1 the compound record lists inhibition as 8.31
